test: wild-type TIM10 yeast growth inhibition – luminescence, uHTS, counter-screen for tim10-1 yeast inhibitor project, primary screen (AID 463195);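 further: wild-type TIM10 isogenic control strain grown at permissive 25 °C; 0% = DMSO yeast wells and 100% = minimal medium wells without yeast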; details: S. cerevisiae TIM10 strain growth, BacTiter-Glo luminescence, 24 h; at 10 µM; stronger effect = higher value
In all, about 330,000 compounds went through this assay and about 4,600 (1.4%) were called active. The entries come from a sample that favours actives as a whole.
What inhibition was measured for each of the following?
Return type: number; implicit unit %.

Item: COc1ccccc1N1CCN(C(=O)C2Cc3ccccc3CN2C(=O)c2ccco2)CC1 (stereo unspecified) | inhibition: 22

Item: `O=C(Nc1cccc(S(=O)(=O)N2CCCC2)c1)c1cncc(Br)c1` | inhibition: 97

Item: `Cc1nc2cc(C(F)(F)F)ccc2n1CCNc1nc(-c2cc(Cl)c(N)c(Cl)c2)cs1` | inhibition: 3.25

Item: COc1ccc(-c2cc3nc(C)c(CCC(=O)NC(C)CCc4ccco4)c(C)n3n2)c(OC)c1 (stereo unspecified) | inhibition: 23.7

Item: `O=C(CN1CCC(O)(c2ccccc2)CC1)Nc1ccc2c(c1)OCCO2` | inhibition: -4.11

Item: `Cc1cc(C)c(C)c(S(=O)(=O)Nc2ccc(O)cc2)c1C` | inhibition: 11.4

Item: `Cc1cc(C(F)(F)F)nc(SCC(=O)Nc2nccs2)n1` | inhibition: 2.33

Item: `COc1ccc(O)c(C(=O)c2cnc3c(c2)c(-c2ccc(F)cc2)c(C#N)c(=O)n3C)c1` | inhibition: 40.2

Item: `O=C(COC(=O)c1ccccc1)c1ccc2c(c1)OCCO2` | inhibition: 3.76

Item: `O=C(CCNC(=O)c1ccc(Br)cc1)Nc1cccc(S(=O)(=O)N2CCCCC2)c1` | inhibition: -7.56

Item: `Cc1cccc(C(=O)Nc2ccc(C(=O)/C=C/c3cccs3)cc2)c1` | inhibition: 10

Item: `CCn1c(=O)c2ccccc2n(CC(=O)N2CCCc3ccccc32)c1=O` | inhibition: -2.71

Item: `O=C(Nc1cccc(S(=O)(=O)N2CCCCC2)c1)c1cncc(Br)c1` | inhibition: 8.29

Item: `COc1cc(CC(=O)N2CCC(n3nccc3NC(=O)C3CC3)CC2)cc(OC)c1OC` | inhibition: -1.91

Item: `CCCC(=O)n1nc(NCc2ccc(OC)cc2)nc1NCc1ccc(OC)cc1` | inhibition: -4.33

Item: `CCOC(=O)/C(C#N)=C\c1c(C)cc(C)c(COC(C)=O)c1C` | inhibition: 19
